tested on: MDA-MB-468 breast; test: NCI-60 one-dose screen, 48 h; conditions: 10 µM unless noted
Compounds without any hit were thinned out: in the full panel of roughly 83,000, 20% have a hit. Calls of active or inactive are those of the source. Rule for the calls: active = growth percent below 10; inactive = the rest.
Hello, when you answer, please use one of the following outcomes: active, inactive

>  <molecule>
COc1ccc([N+](=O)[O-])c(/C=C/C(=O)c2ccccn2)c1

>  <classification>
inactive

$$$$
>  <molecule>
CCN(CC)S(=O)(=O)c1ccc(-c2nc(C(Cl)Cl)nc3cc(C)nn23)cc1

>  <classification>
active

$$$$
>  <molecule>
CC(=O)O[C@H]1CC[C@@]2(C)[C@@H](CC[C@@H]3[C@@H]2CC[C@@]2(C)[C@H]3CC[C@]2(O)C(C)=O)C1

>  <classification>
inactive

$$$$
>  <molecule>
COc1ccc(N2C(=O)c3cc(Cl)ccc3NC2SCc2ccccc2)cc1 (centres undefined)

>  <classification>
inactive

$$$$

Field: outcome | Entry: O=C1Nc2ccc(F)cc2C12Nc1cc(Cl)ccc1S2 (centres undefined)
inactive

Field: outcome | Entry: Fc1ccc(-c2cc3nc(C(Cl)Cl)nc(-c4ccco4)n3n2)cc1
active

Field: outcome | Entry: Cc1ccc(C(=O)c2ccc(CC(=O)NN3C(=O)c4ccccc4C3=O)n2C)cc1
inactive

Field: outcome | Entry: Fc1ccc(-c2cc3nc(C(Cl)Cl)nc(-c4cccs4)n3n2)cc1
active

Field: outcome | Entry: CC[C@]12CN3CCc4c([nH]c5ccccc45)[C@@](C(=O)OC)(c4cc5c(cc4OC)N(C)[C@H]4[C@@](O)(C(=O)OC)[C@H](OC(C)=O)[C@]6(CC)C=CCN7CC[C@]54[C@@H]76)CC(C3)[C@H]1O2 (some centres undefined)
active
